A collection of binders and their measured Kd
Biological target: T1, Bcd homeodomain (Drosophila melanogaster, UniProt P09081-2 77-166)
T1 sequence: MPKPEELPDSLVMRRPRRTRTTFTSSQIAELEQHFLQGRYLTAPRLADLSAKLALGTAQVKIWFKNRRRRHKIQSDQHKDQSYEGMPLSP
Experiment: FP; 33 mM phosphate pH 7.0, 90 mM NaCl, 0.01% Tween 20, 0.1 mM DTT, 0.5% agarose; room temperature
Details: tags: N-GST (pGEX-6P-1, kept); printed reverse strand differs at base 6 of strand 1 (G / C); complement of the forward strand used
value type: Kd (nM)

> print(dat)
                                     binder  value.type  observed.value
1  Bcd oligo 4 (dsDNA) DNA 1: TCGACCGTAATCCCTA DNA 2: TAGGGATTACGGTCGA          Kd            5.02
2  Bcd oligo 30 (dsDNA) DNA 1: TCGACGGTAATCCATA DNA 2: TATGGATTACCGTCGA          Kd            5.18
3  Bcd oligo 16 (dsDNA) DNA 1: TCGACGGTACTCCCTA DNA 2: TAGGGAGTACCGTCGA          Kd             146
